Just for reference, ChEMBL document CHEMBL1124640 is where these values come from.

Tested on: Lymphoblastoid cell
Experiment: Ability to inhibit de novo purine nucleotide biosynthesis at a concentration of 100 uM
Format: functional
Conditions: Homo sapiens
Observed Property: inhibition at 100 µM (%)
Give just the number in %; leave the unit off.

Known results for compounds:
- OC[C@H]1OC(n2ncc3c(Cl)ccnc32)[C@H](O)[C@@H]1O (some centres undefined): 94
- Nc1ccnc2c1cnn2C1O[C@H](CO)[C@@H](O)[C@H]1O (some centres undefined): 36
- O=C1CC=Nc2c1cnn2C1O[C@H](CO)[C@@H](O)[C@H]1O (some centres undefined): 80

Consider the record given below.
Challenge: // query inhibition at 100 µM value for entry [N-]=[N+]=Nc1ccnc2c1cnn2C1O[C@H](CO)[C@@H](O)[C@H]1O (some centres undefined)
Response given: 46
